system: human red blood cells (hRBC); assay: Hemolysis of human red blood cells; type: cell-based; conditions: 20% hRBC, 1 h, 37° C.
Numbered stars: 1 amine (or outer) side, 2 acyl side, 3 side chain; on linkers, the order of the positions; unused ones are H or OH. Bridge positions count the residues as written; N and C are the ends. Square brackets hold non-standard residues; d marks the D form. Peptide text beside a SMILES is read from it. * marks the point of attachment. X2 = CCCCCCCCCC[C@@H](N[*:1])C(=O)[*:2]; Myristoyl = CCCCCCCCCCCCCC(=O)*; Lauroyl = CCCCCCCCCCCC(=O)*; Decanoyl = CCCCCCCCCC(=O)*; Octanoyl = CCCCCCCC(=O)*; Dab = NCC[C@H](N)C(=O)O
Mark TRUE only when Hemolysis at 100 μM stays strictly below 2%. Values equal to the cut-off are FALSE.

Some solved cases for reference:
| molecule | label_class |
| --- | --- |
| CCCCCCCCCC(=O)NCCCC[C@@H]1NC(=O)[C@H](Cc2ccc(O)cc2)NC(=O)[C@@H]2CSSC[C@H](NC(=O)[C@H]([C@@H](C)O)NC(=O)[C@H](Cc3c[nH]cn3)NC(=O)[C@H](Cc3ccc(O)cc3)NC(=O)[C@@H]3CCCN3C(=O)[C@H]3CCCN3C(=O)[C@H](CCCCN)NC1=O)C(=O)N[C@@H](CCCNC(=N)N)C(=O)NCC(=O)N1CCC[C@@H]1C(=O)N[C@@H](CCN)C(=O)N[C@@H](CCCNC(=N)N)C(=O)N[C@@H](Cc1ccc(O)cc1)C(=O)N2 [Ex. 15] (cyclo(YHTCRG[dP][Dab]RYCYK(Decanoyl)K[dP]P); disulfide 4-11) | TRUE |
| CCCCCCCCCCCC(=O)NCC[C@@H]1NC(=O)[C@H](Cc2ccc(O)cc2)NC(=O)[C@@H]2CCCN2C(=O)[C@H]2CCCN2C(=O)[C@H](CCCCN)NC(=O)[C@H](CCC(N)=O)NC(=O)[C@H](Cc2ccc(O)cc2)NC(=O)[C@@H]2CSSC[C@H](NC(=O)[C@H](C)NC1=O)C(=O)N[C@@H](CCCNC(=N)N)C(=O)N[C@@H](C)C(=O)N1CCC[C@@H]1C(=O)N[C@@H](CCN)C(=O)N[C@@H](CCCNC(=N)N)C(=O)N[C@@H](Cc1ccc(O)cc1)C(=O)N2 [Ex. 1] (cyclo(Y[Dab](Lauroyl)ACRA[dP][Dab]RYCYQK[dP]P); disulfide 4-11) | FALSE |
| CCCCCCCCCCCC(=O)NCC[C@@H]1NC(=O)[C@H](Cc2ccc(O)cc2)NC(=O)[C@@H]2CSSC[C@H](NC(=O)[C@H](C)NC(=O)[C@H](Cc3c[nH]cn3)NC(=O)[C@H](Cc3ccc(O)cc3)NC(=O)[C@@H]3CCCN3C(=O)[C@H]3CCCN3C(=O)[C@H](CCCCN)NC1=O)C(=O)N[C@@H](CCCNC(=N)N)C(=O)N[C@@H](C)C(=O)N1CCC[C@@H]1C(=O)N[C@@H](CCN)C(=O)N[C@@H](CCCNC(=N)N)C(=O)N[C@@H](Cc1ccc(O)cc1)C(=O)N2 [Ex. 11] (cyclo(YHACRA[dP][Dab]RYCY[Dab](Lauroyl)K[dP]P); disulfide 4-11) | TRUE |
| CCCCCCCCCC[C@H]1NC(=O)[C@H](Cc2ccc(O)cc2)NC(=O)[C@@H]2CSSC[C@H](NC(=O)[C@H](C)NC(=O)[C@H](Cc3c[nH]cn3)NC(=O)[C@H](Cc3ccc(O)cc3)NC(=O)[C@@H]3CCCN3C(=O)[C@H]3CCCN3C(=O)[C@H](CCCCN)NC1=O)C(=O)N[C@@H](CCCNC(=N)N)C(=O)N[C@@H](C)C(=O)N1CCC[C@@H]1C(=O)N[C@@H](CCN)C(=O)N[C@@H](CCCNC(=N)N)C(=O)N[C@@H](Cc1ccc(O)cc1)C(=O)N2 [Ex. 9] (cyclo(YHACRA[dP][Dab]RYCY[X2]K[dP]P); disulfide 4-11) | FALSE |
| CCCCCCCCCCCC(=O)NCCCC[C@@H]1NC(=O)[C@H](Cc2ccc(O)cc2)NC(=O)[C@@H]2CSSC[C@H](NC(=O)[C@H](C)NC(=O)[C@H](Cc3c[nH]cn3)NC(=O)[C@H](Cc3ccc(O)cc3)NC(=O)[C@@H]3CCCN3C(=O)[C@H]3CCCN3C(=O)[C@H](CCCCN)NC1=O)C(=O)N[C@@H](CCCNC(=N)N)C(=O)N[C@@H](C)C(=O)N1CCC[C@@H]1C(=O)N[C@@H](CCN)C(=O)N[C@@H](CCCNC(=N)N)C(=O)N[C@@H](Cc1ccc(O)cc1)C(=O)N2 [Ex. 17] (cyclo(YHACRA[dP][Dab]RYCYK(Lauroyl)K[dP]P); disulfide 4-11) | FALSE |

Query :: Determine whether this molecule shows Hemolysis at 100 μM lower than 2% (ties excluded): CCCCCCCC(=O)NCCCC[C@@H]1NC(=O)[C@H](Cc2c[nH]cn2)NC(=O)[C@H](Cc2ccc(O)cc2)NC(=O)[C@@H]2CCCN2C(=O)[C@H]2CCCN2C(=O)[C@H](CCCCN)NC(=O)[C@H](CCC(N)=O)NC(=O)[C@H](Cc2ccc(O)cc2)NC(=O)[C@@H]2CSSC[C@H](NC1=O)C(=O)N[C@@H](CO)C(=O)N[C@@H](C)C(=O)N1CCC[C@@H]1C(=O)N[C@@H](CCN)C(=O)N[C@@H](CCCNC(=N)N)C(=O)N[C@@H](Cc1ccc(O)cc1)C(=O)N2 [Ex. 3] (cyclo(YHK(Octanoyl)CSA[dP][Dab]RYCYQK[dP]P); disulfide 4-11)
Result :: TRUE

Query :: I'd appreciate it if you could check whether CCCCCCCC(=O)NCCCC[C@@H]1NC(=O)[C@H](Cc2ccc(O)cc2)NC(=O)[C@@H]2CSSC[C@H](NC(=O)[C@H](Cc3ccc(O)cc3)NC(=O)[C@H](Cc3c[nH]cn3)NC(=O)[C@H](Cc3ccc(O)cc3)NC(=O)[C@@H]3CCCN3C(=O)[C@H]3CCCN3C(=O)[C@H](CCCCN)NC1=O)C(=O)N[C@@H](CO)C(=O)N[C@@H](C)C(=O)N1CCC[C@@H]1C(=O)N[C@@H](CCN)C(=O)N[C@@H](CCCNC(=N)N)C(=O)N[C@@H](Cc1ccc(O)cc1)C(=O)N2 [Ex. 12] (cyclo(YHYCSA[dP][Dab]RYCYK(Octanoyl)K[dP]P); disulfide 4-11) has Hemolysis at 100 μM smaller than 2%.
Result :: TRUE

Query :: Lab log: compare recorded Hemolysis at 100 μM with 2%; is it strictly lower for CCCCCCCCCCCCCC(=O)NCCCC[C@@H]1NC(=O)[C@H](Cc2ccc(O)cc2)NC(=O)[C@@H]2CSSC[C@H](NC(=O)[C@H](C)NC(=O)[C@H](Cc3c[nH]cn3)NC(=O)[C@H](Cc3ccc(O)cc3)NC(=O)[C@@H]3CCCN3C(=O)[C@H]3CCCN3C(=O)[C@H](CCCCN)NC1=O)C(=O)N[C@@H](CCCNC(=N)N)C(=O)N[C@@H](C)C(=O)N1CCC[C@@H]1C(=O)N[C@@H](CCN)C(=O)N[C@@H](CCCNC(=N)N)C(=O)N[C@@H](Cc1ccc(O)cc1)C(=O)N2 [Ex. 19] (cyclo(YHACRA[dP][Dab]RYCYK(Myristoyl)K[dP]P); disulfide 4-11) ?
Result :: TRUE

Numbers sourced from patent US8716242B2.
